- ASSAY NOTES: viability loss in pontine glioma line – cell-based, SU-DIPG-XVII, MIPE5.0, CellTiter-Glo, qHTS, dose response (AID 1347060);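 on AC50: cells exposed to compound for 48 hours before viability readout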
- CONDITION CONTEXT: CellTiter-Glo ATP luminescence
Results filed as inconclusive are left out. Active and inactive are the calls of the source. Cut-off not given; nearly all actives show AC50 up to about 26 µM.
QUANTITY: AC50

Here is how some compounds turned out for AC50.
LINE NOTATION: C=CC(=O)Nc1cccc(C)c1Nc1ncc2cc(-c3c(Cl)c(OC)cc(OC)c3Cl)ccc2n1
AC50: 14.8 µM (active)
//
LINE NOTATION: CNC(=O)c1nn(C)c2c1C(C)(C)Cc1cnc(Nc3ccc(N4CCN(C)CC4)cc3)nc1-2
AC50: 5.9 µM (active)
//
LINE NOTATION: Cc1ncc(NC(=O)c2cccc(C(F)(F)F)c2)cc1-c1cnc(OC2CCOCC2)c(N2CCOCC2)c1
AC50: 9.34 µM (active)
//
LINE NOTATION: O=C(Cc1ccc(-c2ccc(OCCN3CCOCC3)cc2)cn1)NCc1ccccc1
AC50: 0.118 µM (active)
//
LINE NOTATION: CC(C)n1nc(-c2cc3cc(O)ccc3[nH]2)c2c(N)ncnc21
AC50: 2.63 µM (active)
//
LINE NOTATION: C[C@@H]1CN(CC(=O)Nc2ccc3c(c2)Cc2cccc(-c4cc(=O)cc(N5CCOCC5)o4)c2S3)C[C@H](C)O1
AC50: 23.5 µM (active)
//
LINE NOTATION: COc1ncc(-c2ccc3c(Nc4cc(Oc5cc(F)cc(F)c5)cc(C(=O)O)c4)c(S(=O)(=O)NC4CC4)cnc3c2)c(OC)n1
AC50: inactive
//
LINE NOTATION: CC(C)(NS(=O)(=O)c1ccc2c(Cl)cnc(N=C(N)N)c2c1)C(=O)O
AC50: inactive

Please find the next compound below.
Dear colleague, please send me the reported AC50 for CC[C@H](CC#N)OC(=O)N[C@@H](C)c1cccc(NC(=O)Nc2ccc(-c3cnco3)c(OC)c2)c1 when you can.
0.525 µM (active)
